# Measured target: furin, P09958;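 also: purified furin at 1:10 enzyme:substrate in 50 mM HEPES pH 7.5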
# Sequence (P09958 whole entry): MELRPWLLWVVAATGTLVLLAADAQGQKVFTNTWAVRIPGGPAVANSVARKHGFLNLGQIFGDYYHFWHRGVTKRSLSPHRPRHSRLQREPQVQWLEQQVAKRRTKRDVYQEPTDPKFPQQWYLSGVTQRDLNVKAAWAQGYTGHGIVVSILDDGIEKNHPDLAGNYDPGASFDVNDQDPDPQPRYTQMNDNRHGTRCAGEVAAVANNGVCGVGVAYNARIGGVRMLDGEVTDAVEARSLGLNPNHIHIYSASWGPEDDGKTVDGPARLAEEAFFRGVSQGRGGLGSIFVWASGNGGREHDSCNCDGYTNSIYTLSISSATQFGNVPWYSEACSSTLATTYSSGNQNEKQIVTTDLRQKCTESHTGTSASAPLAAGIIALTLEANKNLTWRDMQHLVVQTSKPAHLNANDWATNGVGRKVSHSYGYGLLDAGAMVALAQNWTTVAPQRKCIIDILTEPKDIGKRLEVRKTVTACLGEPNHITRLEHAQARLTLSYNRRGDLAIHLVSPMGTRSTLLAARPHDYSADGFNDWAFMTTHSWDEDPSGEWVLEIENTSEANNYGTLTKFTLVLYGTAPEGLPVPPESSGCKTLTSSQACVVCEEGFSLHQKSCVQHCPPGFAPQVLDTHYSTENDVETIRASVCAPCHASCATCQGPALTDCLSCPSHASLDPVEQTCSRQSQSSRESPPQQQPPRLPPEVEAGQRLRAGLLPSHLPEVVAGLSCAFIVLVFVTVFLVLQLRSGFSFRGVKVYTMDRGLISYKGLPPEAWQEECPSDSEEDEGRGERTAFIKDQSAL
# Assay info: furin cleavage Z-score vs untreated control; higher = more cleavage, active = 3.5 or more, inactive = 1 or less, 8 variable residues between constant flanks
# Recorded conditions: 30 min
The other results are listed elsewhere or left out. No count for the full screen is at hand.
Outcomes: T (active), F (inactive)

| Sequence code | Discrete label |
| --- | --- |
| CALAFRRRRDAGNASASA [FS-346] | T |
| CATTPCSGSCAGNASASA [HC1940] | F |
| CAGYRRCRASAGNASASA [HC1508] | F |
| CAWAHNGLRDAGNASASA [HC640] | F |
| CACGDIINGLAGNASASA [HC657] | F |
| CAYGCRRRRDAGNASASA [FS-737] | T |
